- measuredOn: hGLP-1R (Homo sapiens, UniProt P43220)
- Sequence (P43220 24-463): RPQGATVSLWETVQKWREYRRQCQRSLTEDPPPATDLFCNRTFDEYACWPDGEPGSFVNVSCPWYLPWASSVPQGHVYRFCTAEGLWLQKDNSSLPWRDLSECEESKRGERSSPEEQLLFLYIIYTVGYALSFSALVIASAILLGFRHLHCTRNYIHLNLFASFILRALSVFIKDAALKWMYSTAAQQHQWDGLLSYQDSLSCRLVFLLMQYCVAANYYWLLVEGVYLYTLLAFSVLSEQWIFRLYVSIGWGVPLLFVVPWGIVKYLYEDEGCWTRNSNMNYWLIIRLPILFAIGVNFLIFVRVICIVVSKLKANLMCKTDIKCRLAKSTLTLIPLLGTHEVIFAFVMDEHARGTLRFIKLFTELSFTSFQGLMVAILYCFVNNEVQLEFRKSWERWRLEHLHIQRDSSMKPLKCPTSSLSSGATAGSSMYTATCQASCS
- assayDetails: cell-based or functional assay
Below: a set of entries, each annotated with reported Relative cAMP EC50.
Answer format: numeric, nM implied, no suffix.

YXQGTXTSDXSIXLDKKAQXXFIEYLQEGGPSSGEPPPEGSEE (synthetic construct; SITE 2: note = 2-Aminoisobutyric Acid; SITE 6: note = alpha-methyl-2-fluoro-L-phenylalanine; SITE 10: note = 3-(4-Pyridyl)-L-alanine; SITE 13: note = alpha-methyl-leucine; SITE 17: note = Lysine is chemically modified through conjugation of the epsilon-amino group of the Lysine) [Example 653 (SEQ ID NO: 659)]    0.426
YXQGTFTSDFSKXLDKKAQXAFIEYLIEXGESSGAPPPSGE (Aib, αMeL, acylated Lys (AEEA-γGlu-C18 diacid), C-terminal amide; synthetic construct; SITE 2: note = 2-Aminoisobutyric Acid; SITE 13: note = alpha-methyl-leucine; SITE 17: note = Lysine is chemically modified through conjugation of the epsilon-amino group of the Lysine side chain with (2-[2-(2-Amino-ethoxy)-ethoxy]-acetyl)-(gamma-Glu)-CO-(CH2) 16-CO2H; SITE 20: n) [Example 217]    0.667

In one line, give reported Relative cAMP EC50 of the entry YXQGTFTSDXSQXLDKKAQXAFIEYLIEXGPSSGAPPPSGTGE (Aib, 4Pal, Me4Pal, alpha-methyl-Leu, lipidated Lys, C-terminal amide; synthetic construct; SITE 2: note = 2-Aminoisobutyric Acid; SITE 10: note = 3-(4-Pyridyl)-L-alanine; SITE 13: note = alpha-methyl-leucine; SITE 17: note = Lysine is chemically modified through conjugation of the epsilon-amino group of the Lysine side chain with (gamma-Glu)2-CO-(CH2)16-CO2H; SITE 20:) [Example 1127] .
6.16
